Just for reference, ChEMBL document CHEMBL1961873 is where these values come from.

ASSAYED SYSTEM: Tyrosine-protein kinase CSK (Homo sapiens) (UniProt P41240);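 note: each value is an averaged inhibition reading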
Sequence (P41240 2-450 limits assumed): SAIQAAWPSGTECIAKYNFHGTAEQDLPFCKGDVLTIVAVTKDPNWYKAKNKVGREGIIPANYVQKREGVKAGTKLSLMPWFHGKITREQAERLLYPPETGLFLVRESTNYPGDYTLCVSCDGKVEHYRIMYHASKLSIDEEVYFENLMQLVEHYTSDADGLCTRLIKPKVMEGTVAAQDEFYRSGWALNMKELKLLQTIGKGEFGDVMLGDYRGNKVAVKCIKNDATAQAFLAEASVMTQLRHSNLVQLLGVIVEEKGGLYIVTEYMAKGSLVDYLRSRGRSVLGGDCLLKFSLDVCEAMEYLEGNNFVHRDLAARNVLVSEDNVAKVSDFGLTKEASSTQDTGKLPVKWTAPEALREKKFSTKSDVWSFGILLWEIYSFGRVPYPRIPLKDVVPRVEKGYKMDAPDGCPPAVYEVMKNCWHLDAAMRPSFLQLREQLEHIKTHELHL
SETUP CONDITIONS: at 1 µM
# maps each entry to its inhibition
Give the value in % but do not write % after it.

Solved cases below.
>  <GIVEN SMILES>
CN(C)CCOc1ccc(-c2cc(-c3ccc4c(c3)CCC4=NO)c(-c3ccncc3)o2)cc1

>  <inhibition [%]>
-1.46

$$$$
>  <GIVEN SMILES>
CN(c1ccc(NC(=O)Nc2c(Cl)cccc2Cl)cc1)c1ccnc(Nc2cccc(CS(C)(=O)=O)c2)n1

>  <inhibition [%]>
19.5

$$$$

// recorded inhibition for `COc1ccc2cc(-c3c(-c4ccncc4)nc(-c4ccc(S(C)(=O)=O)cc4C)n3C)ccc2c1` : 7.9

// recorded inhibition for `NS(=O)(=O)c1ccc(Nc2cc(-c3ccc(O)c(F)c3)n[nH]2)cc1` : -6.35

// recorded inhibition for `COc1cccc(/C=N/Nc2ncnc3c2cnn3-c2cccc(OC)c2)c1` : 3.91

// recorded inhibition for `Fc1ccc(-c2c(-c3ccncc3)nc3n2CCS3)cc1` : 5.05

// recorded inhibition for `O=C(Nc1n[nH]c2cc(-c3cc(F)ccc3F)ccc12)C1CC1` : 2.29

// recorded inhibition for `c1ccc(-c2n[nH]cc2-c2ccnc(-c3ccc(OCCN4CCOCC4)cc3)c2)nc1` : -4.36

// recorded inhibition for `CS(=O)(=O)CCNCc1cc(-c2cc3c(Nc4ccc(OCc5cccc(F)c5)c(Cl)c4)ncnc3s2)cs1` : 4.58
